So I've got a bunch of compounds here, and I need their log10 IC50 values.
Biological target: human CB1 receptor (Homo sapiens)
Construct: expressed in transfected cells; host or cells: SK-N-MC cells, stably transfected with pcDNA3 CB-1 (human); semi-purified membrane pellet
Sequence (P21554 whole entry): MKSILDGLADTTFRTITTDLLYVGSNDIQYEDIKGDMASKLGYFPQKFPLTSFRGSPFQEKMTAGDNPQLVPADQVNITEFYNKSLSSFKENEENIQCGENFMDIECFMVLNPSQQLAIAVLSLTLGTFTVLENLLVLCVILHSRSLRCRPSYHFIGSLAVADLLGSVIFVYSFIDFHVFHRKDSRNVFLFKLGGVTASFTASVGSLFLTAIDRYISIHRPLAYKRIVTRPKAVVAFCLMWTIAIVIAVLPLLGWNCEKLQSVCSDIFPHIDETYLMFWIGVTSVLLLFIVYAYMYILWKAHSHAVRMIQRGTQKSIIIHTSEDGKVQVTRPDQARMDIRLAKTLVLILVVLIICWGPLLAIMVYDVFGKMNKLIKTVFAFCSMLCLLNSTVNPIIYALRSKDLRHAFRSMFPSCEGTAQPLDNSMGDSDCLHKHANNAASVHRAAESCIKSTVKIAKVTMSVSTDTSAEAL
Test: biochemical
Format: binding
// do not treat as linear: log10 of IC50, unit nM

Incoming: Request the reported log10 IC50 associated with `C[C@@H](NC(=O)c1nn(-c2ccc(Cl)cc2Cl)c2c1CCC/C2=C\c1ccc(F)cc1)C1CCCCC1`
Outgoing: 0.48

Incoming: Request the reported log10 IC50 associated with `CCOC(=O)[C@@H]1CCCC[C@@H]1NC(=O)c1c2c(nn1Cc1ccccc1)CCCC2`
Outgoing: 3.49

Incoming: Request the reported log10 IC50 associated with CC(C)(C)C1CCc2c(c(C(=O)NC3C4CC5CC(C4)CC3C5)nn2C2CCCCC2)C1 (stereo not shown)
Outgoing: 4.31

Incoming: Request the reported log10 IC50 associated with CC12CCC(C1)C(C)(C)C2NC(=O)c1nn(-c2ccc(F)cc2)c2c1CCCC2C1CCCCC1 (stereo not shown)
Outgoing: 3.58

Incoming: Request the reported log10 IC50 associated with CC12CCC(C1)C(C)(C)C2NC(=O)c1nn(C2CCCCC2)c2c1CC(N)CC2 (stereo not shown)
Outgoing: 3.20

Incoming: Request the reported log10 IC50 associated with `C[C@H](NC(=O)c1nn(-c2ccc(Cl)cc2Cl)c2c1CCC/C2=C\c1ccc(Cl)cc1)c1ccccc1`
Outgoing: 2.04

Incoming: Request the reported log10 IC50 associated with O=C(NC1CCCc2ccccc21)c1nn(C2CCCCC2)c2c1CCCC2 (stereo not shown)
Outgoing: 1.70

Incoming: Request the reported log10 IC50 associated with CC12CCC(C1)C(C)(C)[C@H]2NC(=O)c1nn(-c2ccc(F)cc2)c2c1CCCC2 (stereo partly shown)
Outgoing: 2.06

Incoming: Request the reported log10 IC50 associated with `O=C(NN1CCCCC1)c1nn(-c2ccc(Cl)cc2Cl)c2c1CCC/C2=C\c1ccc(Cl)cc1`
Outgoing: 1.40

Incoming: Request the reported log10 IC50 associated with `CCOC(=O)[C@@H]1CCCC[C@H]1NC(=O)c1nn(-c2ccc(F)cc2)c2c1CCCC2`
Outgoing: 2.13

Incoming: Request the reported log10 IC50 associated with `CCOC(=O)[C@@H]1CCCC[C@H]1NC(=O)c1nn(Cc2ccccc2)c2c1CCCC2`
Outgoing: 1.93

Incoming: Request the reported log10 IC50 associated with CCOC(=O)C1C2CCC(C2)C1NC(=O)c1nn(C2CCCCC2)c2c1CCCC2 (stereo not shown)
Outgoing: 2.93

Incoming: Request the reported log10 IC50 associated with CN(C)S(=O)(=O)NC1CCc2c(c(C(=O)NC3C4CC5CC(C4)CC3C5)nn2C2CCCCC2)C1 (stereo not shown)
Outgoing: 4.10

Incoming: Request the reported log10 IC50 associated with `O=C(NN1CCCCC1)c1nn(-c2ccc(Cl)cc2Cl)c2c1CCCC2=Cc1cccs1`
Outgoing: 1.61

Incoming: Request the reported log10 IC50 associated with CCOC(=O)C1CC=CCC1NC(=O)c1nn(Cc2ccccc2)c2c1CCCC2 (stereo not shown)
Outgoing: 0.78

Incoming: Request the reported log10 IC50 associated with O=C(NN1CC2CCCC2C1)c1nn(-c2ccc(Cl)cc2Cl)c2c1CCC/C2=C\c1ccoc1 (stereo not shown)
Outgoing: 1.20
